- test system: Tubulin (Homo sapiens) (UniProt P68371+Q9H4B7+P0DPH7+P68366+Q13509+Q71U36+P04350+Q3ZCM7+P07437+P68363+Q9BQE3+Q6PEY2+Q13885+Q9BVA1+Q9BUF5)
- protocol summary: Destabilization of microtubule network (unknown origin) assessed as decrease in catastrophes frequency measured for 30 min by differential interference contrast microscopic analysis
Active and inactive are the calls of the source. The calls are words filed in the database; no cut-off is given here.
parameter measured: Activity

The recorded Activity for COc1ccc(C2CCC(=O)N2c2cc(OC)c(OC)c(OC)c2)cc1OC (racemic) is inactive

The recorded Activity for O=C1CC[C@@H]2C[C@H](c3ccccc3)c3ccccc3N12 (racemic) is Active

The recorded Activity for O=C1CCC(/C=C/c2ccccc2)N1c1ccccc1 (racemic) is Active

The recorded Activity for COc1cc(N2C(=O)CCC2c2ccc(Br)cc2)cc(OC)c1OC (racemic) is inactive

###

- test system: Tubulin (Homo sapiens) (UniProt P68371+Q9H4B7+P0DPH7+P68366+Q13509+Q71U36+P04350+Q3ZCM7+P07437+P68363+Q9BQE3+Q6PEY2+Q13885+Q9BVA1+Q9BUF5)
- protocol summary: Destabilization of microtubule network (unknown origin) assessed as effect on microtubule growth rate measured for 30 min by differential interference contrast microscopic analysis
The source made the active and inactive calls. The rule behind the calls is not given here.
Hi! Could you answer with just one of these? y for active, n for inactive

Query: Returns: the outcome recorded for Cc1ccccc1C1CCC(=O)N1c1ccc([N+](=O)[O-])cc1 (racemic) in this assay.
Reply: n

Query: Returns: the outcome recorded for O=C1CCC(c2c3ccccc3cc3ccccc23)N1c1ccc(C(F)(F)F)cc1 (racemic) in this assay.
Reply: n

Query: Returns: the outcome recorded for CC(C)(C)c1ccc(N2C(=O)CCC2/C=C/c2ccccc2)cc1 (racemic) in this assay.
Reply: n

Query: Returns: the outcome recorded for COc1ccc(N2C(=O)CCC2/C=C/c2ccc(C)cc2)cc1OC (racemic) in this assay.
Reply: y

Query: Returns: the outcome recorded for Cc1ccc(/C=C/C2CCC(=O)N2c2ccccc2)cc1 (racemic) in this assay.
Reply: y

###

- protocol summary: Cytotoxicity against HEK293T cells assessed as reduction in cell proliferation incubated for 72 hrs by MTT assay
- Format: toxicity, cell-based, HEK293
- test conditions: human
parameter measured: IC50 at 72 h (µM)
Field format: number, assumed µM, no unit text.

The recorded IC50 at 72 h for O=C1CC[C@@H]2C[C@H](c3cccc(O)c3)c3ccccc3N12 (racemic) is 4.1

###

- test system: Tubulin (Homo sapiens) (UniProt P68371+Q9H4B7+P0DPH7+P68366+Q13509+Q71U36+P04350+Q3ZCM7+P07437+P68363+Q9BQE3+Q6PEY2+Q13885+Q9BVA1+Q9BUF5)
- protocol summary: Destabilization of microtubule network (unknown origin) assessed as effect on microtubule growth rate measured for 30 min by differential interference contrast microscopic analysis
Active and inactive are the calls of the source. The rule behind the calls is not given here.
Hi! Could you answer with just one of these? active, inactive

Query: Returns: the outcome recorded for COc1ccc(C2CCC(=O)N2c2cc(OC)c(OC)c(OC)c2)cc1OC (racemic) in this assay.
Reply: inactive

Query: Returns: the outcome recorded for Cc1ccc([C@H]2C[C@H]3CCC(=O)N3c3ccccc32)cc1 (racemic) in this assay.
Reply: active

Query: Returns: the outcome recorded for COc1cc(N2C(=O)CCC2c2ccc(Br)cc2)cc(OC)c1OC (racemic) in this assay.
Reply: inactive

Query: Returns: the outcome recorded for COc1ccc(N2C(=O)CCC2c2ccc(OC)c(OC)c2)cc1 (racemic) in this assay.
Reply: active

Query: Returns: the outcome recorded for COc1ccc(C2CCC(=O)N2c2cccc3[nH]ccc23)cc1OC (racemic) in this assay.
Reply: inactive
